- Tested on: Caco-2
- EXPERIMENT SUMMARY: relative viability EC50 (midpoint between 100% and the lowest measured viability); higher = less toxic
- EXPERIMENTAL SETUP: 72 h
// relative viability EC50 lookup, one value per entry

CHEM SMILES	relative viability EC50
CN1CCN(c2cccc3[nH]c(=O)oc23)CC1	> 10 µM
Cc1ccc(-n2nc(C(C)(C)C)cc2NC(=O)NCc2cc(F)ccc2Oc2ccc3c(cnn3CCO)c2)cc1	> 10 µM
CCS(=O)(=O)Nc1ccc2c(c1)/C(=C(/Nc1ccc(CN3CCCCC3)cc1)c1ccccc1)C(=O)N2	0.512 µM
C[C@@H]1O[C@@H]1P(=O)(O)O	> 10 µM
CCCC(=O)Nc1cccc(NC(=O)c2ccccc2Br)c1	> 10 µM

* * *

- System: U2OS
- EXPERIMENT SUMMARY: cell viability relative to DMSO; higher = less toxic
- EXPERIMENTAL SETUP: 72 h; 1000 nM

COMPOUND	cell viability (%)
C[C@@H](CN(C)C)CN1c2ccccc2Sc2ccccc21 (racemic) [alimemazine]	97
CN1[C@@H]2CC[C@H]1C[C@@H](OC(=O)[C@H](CO)c1ccccc1)C2 [hyoscyamine]	101
CC[C@@H](C(N)=O)N1CCCC1=O [levetiracetam]	97.2
O=NO [sodium-nitrite]	94.2
CC(=O)NC[C@H]1CN(c2ccc(N3CCN(C(=O)CO)CC3)c(F)c2)C(=O)O1 [eperezolid]	96.4
O=C(Nc1ccccc1)c1cc([N+](=O)[O-])ccc1Cl [GW-9662]	91.6
CCCc1nc(C(C)(C)O)c(C(=O)O)n1Cc1ccc(-c2ccccc2-c2nnn[nH]2)cc1 [olmesartan]	93.5
C[C@@H](NCc1cc(Br)cc2nc(O)c(O)nc12)P(=O)(O)O	92.5
CCCCCCNC(=O)Nc1ccc(S(=O)(=O)Nc2ccc(CCNC[C@H](O)COc3ccc(O)cc3)cc2)cc1	99.9

* * *

- System: A549-ACE2
- EXPERIMENT SUMMARY: drug-induced phospholipidosis relative to tamoxifen; higher = more phospholipidosis
- EXPERIMENTAL SETUP: 0.833333 µM; 48 h
Reported drug-induced phospholipidosis by item:
READOUT KIND: drug-induced phospholipidosis

COMPOUND	READOUT KIND	MEASURED
O=C(NCCN1CCC2(CC1)C(=O)NCN2c1cccc(F)c1)c1ccc(F)c(F)c1	drug-induced phospholipidosis	7.88%
Cc1ccc(NC(=O)Nc2cc(C(F)(F)F)ccc2F)cc1Nc1ccc2c(c1)NC(=O)/C2=C\c1ccc[nH]1	drug-induced phospholipidosis	9.4%
CCOC(=O)C1=C(COCCN)NC(C)=C(C(=O)OC)C1c1ccccc1Cl (stereo not given)	drug-induced phospholipidosis	0.34%
C=C1C(=O)O[C@@H]2[C@H]3C(C)=CC[C@@]34O[C@@]4(C)CC[C@@H]12	drug-induced phospholipidosis	0.06%
Nc1ncccc1-c1nc2ccc(-c3ccccc3)nc2n1-c1ccc(C2(N)CCC2)cc1	drug-induced phospholipidosis	9.82%

* * *

The compounds listed here are annotated with their cell viability.
- System: U2OS
- EXPERIMENT SUMMARY: cell viability relative to DMSO; higher = less toxic
- EXPERIMENTAL SETUP: 72 h; 100 nM

CHEM SMILES	cell viability
CC(=O)NC[C@H]1CN(c2ccc(N3CCN(C(=O)CO)CC3)c(F)c2)C(=O)O1	99.3%
CCOC(=O)[C@H](CCc1ccccc1)N[C@H]1CCc2ccccc2N(CC(=O)O)C1=O	102%
CCN(CC)CCOc1ccc(Cc2ccccc2)cc1	100%
Cc1c(C(=O)NN2CCCCC2)nn(-c2ccc(Cl)cc2Cl)c1-c1ccc(Cl)cc1	98.1%
NC(=O)[C@@H](CC1CC1)[C@@H](CCC(F)(F)F)C(=O)N[C@H]1N=C(c2ccccc2)c2cccc(F)c2NC1=O	94.1%
CC(C)OC(=O)[C@H](C)N[P@@](=O)(OC[C@H]1O[C@@H](n2ccc(=O)[nH]c2=O)[C@](C)(F)[C@@H]1O)Oc1ccccc1	101%
C=C1C(=O)O[C@@H]2[C@H]3C(C)=CC[C@@]34O[C@@]4(C)CC[C@@H]12	100%
CC(C)(N)C(=O)N[C@H](COCc1ccccc1)C(=O)N1CCC2(CC1)CN(S(C)(=O)=O)c1ccccc12	96.9%

* * *

Reported cell viability values for the following molecules.
- Test system: HepG2
- EXPERIMENT SUMMARY: cell viability relative to DMSO; higher = less toxic
- EXPERIMENTAL SETUP: 72 h; 1000 nM

MOLECULE	cell viability / %
C[C@@H](NCc1cc(Br)cc2nc(O)c(O)nc12)P(=O)(O)O	93.3
CC(=O)Nc1cccc(O)c1	92.1
O=c1ccc2ccccc2o1	96.7
C[C@@H]1O[C@@H]1P(=O)(O)O	111
CCN(CC)c1ccc(C(=C2C=CC(=[N+](CC)CC)C=C2)c2ccccc2)cc1	5.2
CC1CC(OC(=O)C(O)c2ccccc2)CC(C)(C)C1 (stereo not given) [cyclandelate]	96.3
CCCCCCNC(=O)Nc1ccc(S(=O)(=O)Nc2ccc(CCNC[C@H](O)COc3ccc(O)cc3)cc2)cc1	103
CC[N+](CC)(CC)CCOc1ccc(/C=C/c2ccccc2)cc1	99.3
O=C(O)COc1ccc(/C=C2\SC(=O)NC2=O)cc1	105
O=C(Nc1ccccc1)N[C@H]1C[C@H](C(=O)O)Nc2cc(Cl)cc(Cl)c21	84.6

* * *

- Tested on: Caco-2
- EXPERIMENT SUMMARY: relative viability EC50 (midpoint between 100% and the lowest measured viability); higher = less toxic
- EXPERIMENTAL SETUP: 72 h
Entries and their relative viability EC50

COMPOUND	relative viability EC50
CC12CCC(C(=O)N(CCCCN3CCN(c4ccccn4)CC3)C1=O)C2(C)C (centres undefined)	> 10 µM
CC(C)(O)c1coc(S(=O)(=O)NC(=O)Nc2c3c(cc4c2CCC4)CCC3)c1	> 10 µM
CN1CCN(C2CCN(C(=O)Nc3cc(Oc4ccc(NC(=O)C5(C(=O)Nc6ccc(F)cc6)CC5)c(F)c4)ccn3)CC2)CC1	1.66 µM
C[N+](C)(C)CCOC(=O)CCC(=O)OCC[N+](C)(C)C [succinylcholine-chloride]	> 10 µM

* * *

- Tested on: HepG2
- EXPERIMENT SUMMARY: cell viability relative to DMSO; higher = less toxic
- EXPERIMENTAL SETUP: 72 h; 1000 nM

CHEM SMILES	TARGET SYSTEM	UNIT TEXT	cell viability
CC(C)[C@H]1c2ccc(F)cc2CC[C@@]1(CCN(C)CCCc1nc2ccccc2[nH]1)OC(=O)C1CC1	HepG2	%	96.8
COc1ccc(COc2ccc(CC#N)cc2)cc1	HepG2	%	95.4
O=C(O)Cc1sc(-c2ccccc2)nc1-c1ccc(Cl)cc1	HepG2	%	103
CCC(=O)NO	HepG2	%	90.6
O=C1N=C(NCc2cccs2)S/C1=C\c1ccc2ncccc2c1	HepG2	%	62.2

* * *

- Test system: Caco-2
- EXPERIMENT SUMMARY: drug sensitivity score (DSS) for viability; higher = more toxic; extreme values may be limits of the assay
- EXPERIMENTAL SETUP: 72 h
// reported drug sensitivity score for each item listed
READOUT KIND: drug sensitivity score

MOLECULE	READOUT KIND	MEASURED
COc1ccc2c(c1)C=C1Cn3c-2c(C2CCCCC2)c2ccc(cc23)C(=O)NS(=O)(=O)N(C)CCOCCN(C)C1=O	drug sensitivity score	0
COC(=O)C1=C(C)NC(C)=C(C(=O)OC(C)C)[C@@H]1c1cccc2nonc12	drug sensitivity score	0
CC(C)C[C@H](NC(=O)[C@@H](COC(C)(C)C)NC(=O)[C@H](Cc1ccc(O)cc1)NC(=O)[C@H](CO)NC(=O)[C@H](Cc1c[nH]c2ccccc12)NC(=O)[C@H](Cc1cnc[nH]1)NC(=O)[C@@H]1CCC(=O)N1)C(=O)N[C@@H](CCCNC(=N)N)C(=O)N1CCC[C@H]1C(=O)NNC(N)=O [goserelin-acetate]	drug sensitivity score	0.6
CCOC(=O)c1ccc(N(C)c2csc(-c3ccccc3)n2)cc1	drug sensitivity score	0
CCOc1cc(OCC)c(C(=O)CCC(=O)O)cc1OCC [trepibutone]	drug sensitivity score	0
Cc1c(C(=O)NN2CCCCC2)nn(-c2ccc(Cl)cc2Cl)c1-c1ccc(Cl)cc1	drug sensitivity score	0.8
COc1nc(C)nc(Cl)c1NC1=NCCN1	drug sensitivity score	0

* * *

- System: U2OS
- EXPERIMENT SUMMARY: cell viability relative to DMSO; higher = less toxic
- EXPERIMENTAL SETUP: 72 h; 1 nM
READOUT KIND: cell viability (%)

MOLECULE	MEASURED
COc1ccc2c(C)nc(Nc3nc(C)c(C)c(O)n3)nc2c1	98.6
C[C@]12CC[C@H]3[C@@H](CCC4=CC(=O)CC[C@@]43C)[C@@H]1CC[C@@H]2O	102
O=C(/C=C/C=C/c1ccc2c(c1)OCO2)N1CCCCC1	95.1
COc1ccc2cccc(N3CCN(CCNC(=O)c4ccc(F)cc4)CC3)c2c1	95.7
CC1(C)CC(Oc2ccc(-c3ccc(-c4cn[nH]c4)cc3O)nn2)CC(C)(C)N1	96.4
CC(=O)N[C@@H](CC(C)C)C(=O)O	101
CC(C)(N)C(=O)N[C@H](COCc1ccccc1)C(=O)N1CCC2(CC1)CN(S(C)(=O)=O)c1ccccc12	100
CCOc1cc(C(=O)Nc2ccc(Cl)c(-c3nc4ccccc4[nH]3)c2)cc(OCC)c1OCC	94.2
C[C@]12N[C@H](Cc3ccccc31)c1ccccc12 [dizocilpine-(-)]	98.1
COc1cc(CN2CCN(c3ccc(F)cc3)CC2)cc(OC)c1OC	100
COc1ccc(COc2cc3oc(=O)c4cc(C(C)O)ccc4c3cc2OC)cc1 (stereo not drawn)	96.3
CC(C)OC(=O)[C@H](C)N[P@@](=O)(OC[C@H]1O[C@@H](n2ccc(=O)[nH]c2=O)[C@](C)(F)[C@@H]1O)Oc1ccccc1	98.2
O=C(Oc1ccccc1)c1ccccc1O [phenyl-salicylate]	97.7
O=S(=O)(N[C@H](CO)C(C(F)(F)F)C(F)(F)F)c1ccc(Cl)s1	100
COc1ccc2c(c1)C=C1Cn3c-2c(C2CCCCC2)c2ccc(cc23)C(=O)NS(=O)(=O)N(C)CCOCCN(C)C1=O	102
CON(C)C(=O)N1N=C(c2cc(F)ccc2F)S[C@@]1(CCCN)c1ccccc1	98.2
O=NO [sodium-nitrite]	95.4
O=C(O)CC[C@H]1CC[C@@](c2cc(F)ccc2F)(S(=O)(=O)c2ccc(Cl)cc2)CC1	94.9
